System: Xanthomonas axonopodis pv. citri
experimental.protocol: microbe, parasite or virus in culture
Type: cell-based
condition.context: Xanthomonas axonopodis, read-out: Inhibition rate
Please enter met where inhibition at 200 µg/mL is greater than or equal to 20%, and not met where it is lower.

# bool: inhibition at 200 µg/mL of O=S(=O)(Cc1ccccc1)c1nnc(COc2ccc(Cl)cc2)o1 [Compound 5I-10] >= 20%
met

Would you say O=S(=O)(Cc1ccccc1)c1nnc(COc2ccc(F)cc2)o1 [Compound 5I-9] shows inhibition at 200 µg/mL at minimum 20%?
met

# bool: inhibition at 200 µg/mL of O=S(=O)(Cc1ccccc1)c1nnc(COc2ccc(Br)cc2)s1 [Compound 5II-10] >= 20%
not met

I'd appreciate it if you could say whether CS(=O)(=O)c1nnc(COc2ccc(Cl)cc2Cl)s1 [Compound 5II-4] has inhibition at 200 µg/mL at least equal to 20%.
met

Can Cc1cc(Cl)ccc1OCc1nnc(S(=O)(=O)Cc2ccccc2)o1 [Compound 5I-13] be said to have inhibition at 200 µg/mL at or above 20%?
not met

Source of measurements: paper PMC6155626
